This listing pairs compounds with measured pEC50.
Molecular target: μ-opioid receptor (Homo sapiens)
Sequence (P35372 whole entry, species assumed): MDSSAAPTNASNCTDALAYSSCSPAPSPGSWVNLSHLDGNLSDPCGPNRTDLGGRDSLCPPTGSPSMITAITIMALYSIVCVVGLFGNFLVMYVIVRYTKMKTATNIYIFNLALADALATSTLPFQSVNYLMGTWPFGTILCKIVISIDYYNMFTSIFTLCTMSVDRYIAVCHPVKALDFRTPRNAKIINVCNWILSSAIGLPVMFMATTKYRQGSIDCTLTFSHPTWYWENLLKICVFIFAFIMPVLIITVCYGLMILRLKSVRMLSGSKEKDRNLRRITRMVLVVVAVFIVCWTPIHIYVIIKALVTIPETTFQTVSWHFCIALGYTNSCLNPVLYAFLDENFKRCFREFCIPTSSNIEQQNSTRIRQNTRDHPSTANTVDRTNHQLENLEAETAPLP
Assay: μ-opioid receptor [35S]GTPγS functional assay, U-2 OS cells
Type: biochemical
Set-up: host or cells: U-2 OS cells
pEC50: −log10 of the molar value.
Measured Endpoint: pEC50

N=C(N)NCCCCN[C@@H]1CC[C@@]2(O)[C@H]3Cc4ccc(O)cc4[C@@]2(CCN3CC2CC2)C1 [Compound 16] = 7.27
NCCCN[C@@H]1CC[C@@]2(O)[C@H]3Cc4ccc(O)cc4[C@@]2(CCN3CC2CC2)C1 [Compound 13] = 7.41
Oc1ccc2c(c1)[C@]13CCN(CC4CC4)[C@H](C2)[C@]1(O)C[C@@H](NCc1ccccc1)[C@@H](O)C3 [Compound 36] = 8.63
CCC(=O)N[C@H]1C[C@@]2(O)[C@H]3Cc4ccc(O)cc4[C@@]2(CCN3CC2CC2)C[C@@H]1O [Compound 57] = 7.11
N=C(N)NCCCC(=O)N[C@@H]1CC[C@@]2(O)[C@H]3Cc4ccc(O)cc4[C@@]2(CCN3CC2CC2)C1 [Compound 22] = 6.61
NCCN[C@@H]1CC[C@@]2(O)[C@H]3Cc4ccc(O)cc4[C@@]2(CCN3CC2CC2)C1 [Compound 11] = 7.42
CN(C)[C@H]1CC[C@@]2(O)[C@H]3Cc4ccc(O)cc4[C@@]2(CCN3CC2CC2)C1 [Compound 10] = 8.33

The reported numbers originate from patent US20200148646A1.
